From: patent EP0406958B1

Dear all, this message contains pIC50 results, target or system UniProtKB Q14432.
Sequence (Q14432 whole entry): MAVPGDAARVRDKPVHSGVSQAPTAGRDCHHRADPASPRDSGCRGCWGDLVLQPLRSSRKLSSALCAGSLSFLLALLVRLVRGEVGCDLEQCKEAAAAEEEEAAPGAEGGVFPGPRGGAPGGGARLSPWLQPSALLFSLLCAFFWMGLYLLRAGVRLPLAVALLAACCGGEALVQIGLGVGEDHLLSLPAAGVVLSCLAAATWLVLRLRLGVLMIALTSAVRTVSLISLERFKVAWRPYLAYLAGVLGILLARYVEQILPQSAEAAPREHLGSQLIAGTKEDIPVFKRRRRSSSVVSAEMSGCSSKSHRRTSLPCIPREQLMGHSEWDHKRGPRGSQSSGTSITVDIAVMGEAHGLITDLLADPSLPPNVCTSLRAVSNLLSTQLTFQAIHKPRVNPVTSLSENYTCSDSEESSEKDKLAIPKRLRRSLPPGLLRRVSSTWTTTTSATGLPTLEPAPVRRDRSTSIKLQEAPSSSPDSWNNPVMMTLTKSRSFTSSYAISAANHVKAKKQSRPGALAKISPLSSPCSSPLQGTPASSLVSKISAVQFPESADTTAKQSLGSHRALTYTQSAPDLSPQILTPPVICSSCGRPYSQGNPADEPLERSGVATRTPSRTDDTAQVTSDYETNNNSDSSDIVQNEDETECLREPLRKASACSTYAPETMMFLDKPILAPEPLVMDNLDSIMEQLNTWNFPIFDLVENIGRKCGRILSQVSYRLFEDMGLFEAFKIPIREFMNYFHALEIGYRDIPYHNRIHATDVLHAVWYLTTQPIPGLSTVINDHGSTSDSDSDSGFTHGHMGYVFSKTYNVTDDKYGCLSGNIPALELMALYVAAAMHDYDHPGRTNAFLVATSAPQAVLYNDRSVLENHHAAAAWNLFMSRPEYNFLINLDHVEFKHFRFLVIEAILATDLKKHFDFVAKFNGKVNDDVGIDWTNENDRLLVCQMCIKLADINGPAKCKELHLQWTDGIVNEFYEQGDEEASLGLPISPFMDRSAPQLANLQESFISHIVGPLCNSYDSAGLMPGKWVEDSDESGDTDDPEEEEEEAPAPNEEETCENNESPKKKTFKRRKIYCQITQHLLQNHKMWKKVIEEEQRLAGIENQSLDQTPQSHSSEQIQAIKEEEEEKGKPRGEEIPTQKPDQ
pIC50: −log10 of the molar value.
reported property: pIC50

Examples with answers:
{"smiles structure": "CN(C(=O)CON=C(c1ccccc1)c1ccc2c(c1)CN1CC(=O)NC1=N2)C1CCCCC1", "value reported": 7.24}
{"smiles structure": "O=C1CN2Cc3cc(/C(=N/O)c4ccccc4)ccc3N=C2N1", "value reported": 6.72}

a = CCOC(=O)C=C(c1ccccc1)c1ccc2c(c1)CN1CC(=O)NC1=N2
b = CN(C(=O)CO/N=C(\c1ccccc1)c1ccc2c(c1)CN1CC(=O)NC1=N2)C1CCCCC1
Could you tell me which of these two has the smaller pIC50 figure? First: a Second: b Please identify the chosen entry by its label. a

====

- Tested on: mongrel dogs
- test: Haemodynamic variables in dogs after cumulative intravenous bolus administration
- Format: in vivo
- setup conditions: maximum end-dose 0.16 mg kg-1 (comp. 14: 0.08 mg kg-1)
% changes in haemodynamic variables: AoPd (diastolic aortic blood pressure) listing for selected compounds.
Answer in %, number only, no unit symbol.

Below, 5 compounds whose answers are already recorded.
{"smiles structure": "COc1ccc(C(=O)c2ccc3c(c2)CN2CC(=O)NC2=N3)cc1", "value reported": 0}
{"smiles structure": "O=C1CN2Cc3cc(C(=O)c4ccc(F)cc4)ccc3N=C2N1", "value reported": 0}
{"smiles structure": "CN(C(=O)CON=C(c1ccccc1)c1ccc2c(c1)CN1CC(=O)NC1=N2)C1CCCCC1", "value reported": 0}
{"smiles structure": "COc1ccc(C(=NO)c2ccc3c(c2)CN2CC(=O)NC2=N3)cc1", "value reported": 0}
{"smiles structure": "O=C1CN2Cc3cc(C(=NO)c4ccccc4)ccc3N=C2N1", "value reported": -10}

Provide the documented % changes in haemodynamic variables: AoPd (diastolic aortic blood pressure) with mongrel dogs as the system for CCOC(=O)CON=C(c1ccccc1)c1ccc2c(c1)CN1CC(=O)NC1=N2 -13

Notebook: pull reported % changes in haemodynamic variables: AoPd (diastolic aortic blood pressure) for mongrel dogs, entry CN(C(=O)CO/N=C(/c1ccccc1)c1ccc2c(c1)CN1CC(=O)NC1=N2)C1CCCCC1 -5

====

- System: mongrel dogs
- test: Haemodynamic variables in dogs after cumulative intravenous bolus administration
- Type: in vivo
- setup conditions: maximum end-dose 0.16 mg kg-1 (comp. 14: 0.08 mg kg-1)
reported property: % changes in haemodynamic variables: LVdp/dtmax/Pd (positive inotropic effect) (%)
Reply with just the number (in %).

Look over these answered cases.
{"molecule": "COc1ccc(C(=O)c2ccc3c(c2)CN2CC(=O)NC2=N3)cc1 [compound 12]", "quantity unit": "%", "value reported": 57.5}
{"molecule": "CCOC(=O)CON=C(c1ccccc1)c1ccc2c(c1)CN1CC(=O)NC1=N2 [compound 6]", "quantity unit": "%", "value reported": 31}
{"molecule": "O=C1CN2Cc3cc(C(=O)c4ccc(F)cc4)ccc3N=C2N1 [compound 14]", "quantity unit": "%", "value reported": 35}

Quick one: % changes in haemodynamic variables: LVdp/dtmax/Pd (positive inotropic effect) for CN(C(=O)CO/N=C(/c1ccccc1)c1ccc2c(c1)CN1CC(=O)NC1=N2)C1CCCCC1 [compound 10] ? 18

GET /values?readout=% changes in haemodynamic variables: LVdp/dtmax/Pd (positive inotropic effect)&item= COc1ccc(C(=NO)c2ccc3c(c2)CN2CC(=O)NC2=N3)cc1 [compound 13] 45

Which % changes in haemodynamic variables: LVdp/dtmax/Pd (positive inotropic effect) value belongs to O=C1CN2Cc3cc(C(=NO)c4ccccc4)ccc3N=C2N1 [compound 2] ? 102

Request the reported % changes in haemodynamic variables: LVdp/dtmax/Pd (positive inotropic effect) associated with CN(C(=O)CON=C(c1ccccc1)c1ccc2c(c1)CN1CC(=O)NC1=N2)C1CCCCC1 [compound 8] 29
